# credit: PubChem BioAssay AID2060352

Quick reference for viability, T/C among some compounds
# Test system: 616215-338-R-J1-PDC spheroid with HUVEC/MSC, viability
# experimental_details: Anticancer human tumor 616215-338-R-J1-PDC patient-derived colon adenocarcinoma cell line growth inhibition [TAK]
# condition_summary: second compound 0.3 µM; first compound 0.1 µM; active compounds read low

compound	viability, T/C [%]
COc1c(OCCCN2CCOCC2)ccc2c3n(c(=NC(=O)c4cnc(N)nc4)nc12)CCN3 + CC(C)NCC(C(=O)N1CCN(c2ncnc3c2C(C)CC3O)CC1)c1ccc(Cl)cc1	49.7
COC1CC2CCC(C)C(O)(O2)C(=O)C(=O)N2CCCCC2C(=O)OC(C(C)CC2CCC(OCCO)C(OC)C2)CC(=O)C(C)C=C(C)C(O)C(OC)C(=O)C(C)CC(C)C=CC=CC=C1C (stereo unspecified) + CC(C)NCC(C(=O)N1CCN(c2ncnc3c2C(C)CC3O)CC1)c1ccc(Cl)cc1	104
CC(C)(C)c1nc(-c2cccc(NS(=O)(=O)c3c(F)cccc3F)c2F)c(-c2ccnc(N)n2)s1 + CC(C)NCC(C(=O)N1CCN(c2ncnc3c2C(C)CC3O)CC1)c1ccc(Cl)cc1	140
Cc1nc(NC(=O)N2CCCC2C(N)=O)sc1-c1ccnc(C(C)(C)C(F)(F)F)c1 (stereo unspecified) + CC(C)NCC(C(=O)N1CCN(c2ncnc3c2C(C)CC3O)CC1)c1ccc(Cl)cc1	113
CC(C)CC(NC(=O)CNC(=O)c1cc(Cl)ccc1Cl)B1OC(=O)CC(CC(=O)O)(C(=O)O)O1 (stereo unspecified) + CC(C)NCC(C(=O)N1CCN(c2ncnc3c2C(C)CC3O)CC1)c1ccc(Cl)cc1	0.11
CC(C)n1nc(-c2ccc3oc(N)nc3c2)c2c(N)ncnc21 + CC(C)NCC(C(=O)N1CCN(c2ncnc3c2C(C)CC3O)CC1)c1ccc(Cl)cc1	41.2

---

# System: 616215-338-R-J1-PDC spheroid with HUVEC/MSC, viability
# experimental_details: Anticancer human tumor 616215-338-R-J1-PDC cell line growth inhibition [TAK];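 also: spheroids exposed to drugs for 7 days before readout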
# condition_summary: second compound 0.3 µM; first compound 0.01 µM; active compounds read low

compound	viability, T/C
CC(C)CC(NC(=O)CNC(=O)c1cc(Cl)ccc1Cl)B1OC(=O)CC(CC(=O)O)(C(=O)O)O1 (stereo not given) + CC(C)NCC(C(=O)N1CCN(c2ncnc3c2C(C)CC3O)CC1)c1ccc(Cl)cc1	105%
COc1c(OCCCN2CCOCC2)ccc2c3n(c(=NC(=O)c4cnc(N)nc4)nc12)CCN3 + CC(C)NCC(C(=O)N1CCN(c2ncnc3c2C(C)CC3O)CC1)c1ccc(Cl)cc1	113%
COC1CC2CCC(C)C(O)(O2)C(=O)C(=O)N2CCCCC2C(=O)OC(C(C)CC2CCC(OCCO)C(OC)C2)CC(=O)C(C)C=C(C)C(O)C(OC)C(=O)C(C)CC(C)C=CC=CC=C1C (stereo not given) + CC(C)NCC(C(=O)N1CCN(c2ncnc3c2C(C)CC3O)CC1)c1ccc(Cl)cc1	129%
CC(C)CC(NC(=O)C(Cc1ccccc1)NC(=O)c1cnccn1)B(O)O (stereo not given) + CC(C)NCC(C(=O)N1CCN(c2ncnc3c2C(C)CC3O)CC1)c1ccc(Cl)cc1	112%
CC(C)n1nc(-c2ccc3oc(N)nc3c2)c2c(N)ncnc21 + CC(C)NCC(C(=O)N1CCN(c2ncnc3c2C(C)CC3O)CC1)c1ccc(Cl)cc1	130%

---

# Tested on: 616215-338-R-J1-PDC spheroid with HUVEC/MSC, viability
# experimental_details: Anticancer human tumor 616215-338-R-J1-PDC cell line growth inhibition [TAK];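 also: spheroids exposed to drugs for 7 days before readout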
# condition_summary: second compound 0.949 µM; first compound 1 µM; active compounds read low
# Procedure: Combinatorial screen of targeted agents with TAK-243 and ipatasertib in multi-cell type tumor spheroids […] Compounds. […] If the clinical Cmax for an agent had not been determined, the highest concentration tested was 10 microM. NCI60 Cell Culture. […] The optimal seeding densities for each of the cell lines at each time point assessed were determined prior to performing the concentration response studies. […]

compound	readout_unit	viability, T/C
Cc1nc(NC(=O)N2CCCC2C(N)=O)sc1-c1ccnc(C(C)(C)C(F)(F)F)c1 (centres undefined) + CC(C)NCC(C(=O)N1CCN(c2ncnc3c2C(C)CC3O)CC1)c1ccc(Cl)cc1	%	119
COc1c(OCCCN2CCOCC2)ccc2c3n(c(=NC(=O)c4cnc(N)nc4)nc12)CCN3 + CC(C)NCC(C(=O)N1CCN(c2ncnc3c2C(C)CC3O)CC1)c1ccc(Cl)cc1	%	15.8
CCCS(=O)(=O)Nc1ccc(F)c(C(=O)c2c[nH]c3ncc(-c4ccc(Cl)cc4)cc23)c1F + CC(C)NCC(C(=O)N1CCN(c2ncnc3c2C(C)CC3O)CC1)c1ccc(Cl)cc1	%	114
CC(C)(C)c1nc(-c2cccc(NS(=O)(=O)c3c(F)cccc3F)c2F)c(-c2ccnc(N)n2)s1 + CC(C)NCC(C(=O)N1CCN(c2ncnc3c2C(C)CC3O)CC1)c1ccc(Cl)cc1	%	43.1

---

# Test system: 616215-338-R-J1-PDC spheroid with HUVEC/MSC, viability
# experimental_details: Anticancer human tumor 616215-338-R-J1-PDC cell line growth inhibition [TAK];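 also: spheroids exposed to drugs for 7 days before readout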
# condition_summary: second compound 0.949 µM; first compound 0.001 µM; active compounds read low
# Method: Combinatorial screen of targeted agents with TAK-243 and ipatasertib in multi-cell type tumor spheroids […] Compounds. […] If the clinical Cmax for an agent had not been determined, the highest concentration tested was 10 microM. NCI60 Cell Culture. […] The optimal seeding densities for each of the cell lines at each time point assessed were determined prior to performing the concentration response studies. […]
endpoint_name: viability, T/C (%)

compound	endpoint_name	endpoint_result
CC(C)CC(NC(=O)C(Cc1ccccc1)NC(=O)c1cnccn1)B(O)O (centres undefined) + CC(C)NCC(C(=O)N1CCN(c2ncnc3c2C(C)CC3O)CC1)c1ccc(Cl)cc1	viability, T/C	112
CC(C)CC(NC(=O)CNC(=O)c1cc(Cl)ccc1Cl)B1OC(=O)CC(CC(=O)O)(C(=O)O)O1 (centres undefined) + CC(C)NCC(C(=O)N1CCN(c2ncnc3c2C(C)CC3O)CC1)c1ccc(Cl)cc1	viability, T/C	136
CC(C)n1nc(-c2ccc3oc(N)nc3c2)c2c(N)ncnc21 + CC(C)NCC(C(=O)N1CCN(c2ncnc3c2C(C)CC3O)CC1)c1ccc(Cl)cc1	viability, T/C	119
COC1CC2CCC(C)C(O)(O2)C(=O)C(=O)N2CCCCC2C(=O)OC(C(C)CC2CCC(OCCO)C(OC)C2)CC(=O)C(C)C=C(C)C(O)C(OC)C(=O)C(C)CC(C)C=CC=CC=C1C (centres undefined) + CC(C)NCC(C(=O)N1CCN(c2ncnc3c2C(C)CC3O)CC1)c1ccc(Cl)cc1	viability, T/C	125

---

Reported viability, T/C values for a set of molecules
# Tested on: 616215-338-R-J1-PDC spheroid with HUVEC/MSC, viability
# experimental_details: Anticancer human tumor 616215-338-R-J1-PDC cell line growth inhibition [TAK];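 also: spheroids exposed to drugs for 7 days before readout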
# condition_summary: second compound 3 µM; first compound 0.00316 µM; active compounds read low

molecule	assay_target	viability, T/C [%]
COc1c(OCCCN2CCOCC2)ccc2c3n(c(=NC(=O)c4cnc(N)nc4)nc12)CCN3 + CC(C)NCC(C(=O)N1CCN(c2ncnc3c2C(C)CC3O)CC1)c1ccc(Cl)cc1	616215-338-R-J1-PDC spheroid with HUVEC/MSC, viability	64.3
CC(C)n1nc(-c2ccc3oc(N)nc3c2)c2c(N)ncnc21 + CC(C)NCC(C(=O)N1CCN(c2ncnc3c2C(C)CC3O)CC1)c1ccc(Cl)cc1	616215-338-R-J1-PDC spheroid with HUVEC/MSC, viability	43.5
CC(C)CC(NC(=O)C(Cc1ccccc1)NC(=O)c1cnccn1)B(O)O (stereo not given) + CC(C)NCC(C(=O)N1CCN(c2ncnc3c2C(C)CC3O)CC1)c1ccc(Cl)cc1	616215-338-R-J1-PDC spheroid with HUVEC/MSC, viability	84.8
CC(C)CC(NC(=O)CNC(=O)c1cc(Cl)ccc1Cl)B1OC(=O)CC(CC(=O)O)(C(=O)O)O1 (stereo not given) + CC(C)NCC(C(=O)N1CCN(c2ncnc3c2C(C)CC3O)CC1)c1ccc(Cl)cc1	616215-338-R-J1-PDC spheroid with HUVEC/MSC, viability	57.7
COC1CC2CCC(C)C(O)(O2)C(=O)C(=O)N2CCCCC2C(=O)OC(C(C)CC2CCC(OCCO)C(OC)C2)CC(=O)C(C)C=C(C)C(O)C(OC)C(=O)C(C)CC(C)C=CC=CC=C1C (stereo not given) + CC(C)NCC(C(=O)N1CCN(c2ncnc3c2C(C)CC3O)CC1)c1ccc(Cl)cc1	616215-338-R-J1-PDC spheroid with HUVEC/MSC, viability	45.6

---

# System: 616215-338-R-J1-PDC spheroid with HUVEC/MSC, viability
# experimental_details: Anticancer human tumor 616215-338-R-J1-PDC cell line growth inhibition [TAK]; active = viability on the fitted dose curve at most 10% of control; inactive = the rest;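 also: spheroids exposed to drugs for 7 days before readout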
# condition_summary: second compound 9.49 µM; first compound 0.0316 µM
Labels: YES (active), NO (inactive)

compound	class_assignment
Cc1nc(NC(=O)N2CCCC2C(N)=O)sc1-c1ccnc(C(C)(C)C(F)(F)F)c1 (stereo unspecified) + CC(C)NCC(C(=O)N1CCN(c2ncnc3c2C(C)CC3O)CC1)c1ccc(Cl)cc1	NO
CC(C)CC(NC(=O)CNC(=O)c1cc(Cl)ccc1Cl)B1OC(=O)CC(CC(=O)O)(C(=O)O)O1 (stereo unspecified) + CC(C)NCC(C(=O)N1CCN(c2ncnc3c2C(C)CC3O)CC1)c1ccc(Cl)cc1	YES
CC(C)(C)c1nc(-c2cccc(NS(=O)(=O)c3c(F)cccc3F)c2F)c(-c2ccnc(N)n2)s1 + CC(C)NCC(C(=O)N1CCN(c2ncnc3c2C(C)CC3O)CC1)c1ccc(Cl)cc1	NO
CC(C)n1nc(-c2ccc3oc(N)nc3c2)c2c(N)ncnc21 + CC(C)NCC(C(=O)N1CCN(c2ncnc3c2C(C)CC3O)CC1)c1ccc(Cl)cc1	NO
COc1c(OCCCN2CCOCC2)ccc2c3n(c(=NC(=O)c4cnc(N)nc4)nc12)CCN3 + CC(C)NCC(C(=O)N1CCN(c2ncnc3c2C(C)CC3O)CC1)c1ccc(Cl)cc1	NO
COC1CC2CCC(C)C(O)(O2)C(=O)C(=O)N2CCCCC2C(=O)OC(C(C)CC2CCC(OCCO)C(OC)C2)CC(=O)C(C)C=C(C)C(O)C(OC)C(=O)C(C)CC(C)C=CC=CC=C1C (stereo unspecified) + CC(C)NCC(C(=O)N1CCN(c2ncnc3c2C(C)CC3O)CC1)c1ccc(Cl)cc1	NO
